Origin of values: ChEMBL document CHEMBL3885861

Species on record: Rattus norvegicus
Assay: Open TG-GATES - Regimen: Daily Repeat
Assay type: toxicity, organism-based, Sprague-Dawley
Set-up: regimen Daily Repeat, gender Male, age 6 weeks
Conditions: in vivo, po, 100 mg/kg, […], tissue Blood, route gavage, dose level Low, time 14 day
For each entry below, report its RBC value.
Write the numeric value and append its unit.

Completed entries (count: 4):
molecule	RBC
COc1ccc2[nH]c([S+]([O-])Cc3ncc(C)c(OC)c3C)nc2c1 (stereo not given) [OMEPRAZOLE]	691 x10_4/ul
CCOc1ccc(NC(=O)CC(C)O)cc1 (stereo not given) [BUCETIN]	729.2 x10_4/ul
COC1=CC(=O)C[C@@H](C)[C@]12Oc1c(Cl)c(OC)cc(OC)c1C2=O [GRISEOFULVIN]	696.2 x10_4/ul
NC(N)=Nc1nc(CSCCC(N)=NS(N)(=O)=O)cs1 [FAMOTIDINE]	691.8 x10_4/ul

Summary for this molecule, CCOC(=O)CCC(=O)O[C@H]1[C@H](O[C@@H]2[C@@H](C)[C@H](O[C@H]3C[C@@](C)(OC)[C@@H](O)[C@H](C)O3)[C@@H](C)C(=O)O[C@H](CC)[C@@](C)(O)[C@H](O)[C@@H](C)C(=O)[C@H](C)C[C@@]2(C)O)O[C@H](C)C[C@@H]1N(C)C [ERYTHROMYCIN ETHYLSUCCINATE] : RBC is 673.2 x10_4/ul

----------
Organism: Rattus norvegicus
Assay: Open TG-GATES - Regimen: Single
Format: toxicity, organism-based, Sprague-Dawley
Design: regimen Single, gender Male, age 6 weeks
Details: in vivo, po, 1000 mg/kg, 24 h, tissue Plasma, route gavage, dose level High
parameter: LDH (IU/L)
One number for each entry, in IU/L.

Completed entries (count: 3):
molecule	reported measurement
CCOC(=O)CCC(=O)O[C@H]1[C@H](O[C@@H]2[C@@H](C)[C@H](O[C@H]3C[C@@](C)(OC)[C@@H](O)[C@H](C)O3)[C@@H](C)C(=O)O[C@H](CC)[C@@](C)(O)[C@H](O)[C@@H](C)C(=O)[C@H](C)C[C@@]2(C)O)O[C@H](C)C[C@@H]1N(C)C [ERYTHROMYCIN ETHYLSUCCINATE]	209.6
COc1ccc2[nH]c([S+]([O-])Cc3ncc(C)c(OC)c3C)nc2c1 (centres undefined) [OMEPRAZOLE]	230
COC1=CC(=O)C[C@@H](C)[C@]12Oc1c(Cl)c(OC)cc(OC)c1C2=O [GRISEOFULVIN]	148.6

Turning now to a further record.
Summary for this molecule, NC(N)=Nc1nc(CSCCC(N)=NS(N)(=O)=O)cs1 [FAMOTIDINE] : LDH is 165

----------
For each entry below, report its Fbg value.
Species: Rattus norvegicus
Assay: Open TG-GATES - Regimen: Single
Format: toxicity, organism-based, Sprague-Dawley
Set-up: regimen Single, gender Male, age 6 weeks
Conditions: in vivo, po, 30 mg/kg, 24 h, tissue Blood, route gavage, dose level Middle
Numbers only, in mg/dL.

                                   compound  unit_string  reported_measurement
0  CN(C)CCCN1c2ccccc2CCc2ccccc21 [IMIPRAMINE]        mg/dL                 298.2
1                CN(C)CCN(Cc1cccs1)c1ccccn1        mg/dL                   308
2  CC1=C(/C=C/C(C)=C/C=C/C(C)=C/CO)C(C)(C)CCC1 [RETINOL]        mg/dL                 303.2

Turning now to a further record.
Summary for this compound, CN(C)CCCN1c2ccccc2CCc2ccc(Cl)cc21 [CLOMIPRAMINE] : Fbg is 247.6

----------
For each entry below, report its Na value.
Species on record: Rattus norvegicus
Test: Open TG-GATES - Regimen: Single
Type: toxicity, organism-based, Sprague-Dawley
Design: regimen Single, gender Male, age 6 weeks
Settings: in vivo, po, 300 mg/kg, 6 h, tissue Plasma, route gavage, dose level Middle
Write the numeric value and append its unit.

Completed entries (count: 3):
molecule	Na
NC(N)=Nc1nc(CSCCC(N)=NS(N)(=O)=O)cs1	140.8 meq/L
COc1ccc2[nH]c([S+]([O-])Cc3ncc(C)c(OC)c3C)nc2c1 (centres undefined)	140 meq/L
CCOC(=O)CCC(=O)O[C@H]1[C@H](O[C@@H]2[C@@H](C)[C@H](O[C@H]3C[C@@](C)(OC)[C@@H](O)[C@H](C)O3)[C@@H](C)C(=O)O[C@H](CC)[C@@](C)(O)[C@H](O)[C@@H](C)C(=O)[C@H](C)C[C@@]2(C)O)O[C@H](C)C[C@@H]1N(C)C [ERYTHROMYCIN ETHYLSUCCINATE]	138.2 meq/L

Turning now to a further record.
Summary for this molecule, COC1=CC(=O)C[C@@H](C)[C@]12Oc1c(Cl)c(OC)cc(OC)c1C2=O : Na is 141.4 meq/L

----------
Organism: Rattus norvegicus
Assay: Open TG-GATES - Regimen: Single
Format: toxicity, organism-based, Sprague-Dawley
Set-up: regimen Single, gender Male, age 6 weeks
Conditions: in vivo, po, 100 mg/kg, 9 h, tissue Plasma, route gavage, dose level Low
parameter: ALT (IU/L)
One number for each entry, in IU/L.

Completed entries (count: 3):
compound	unit string	ALT
CCOC(=O)CCC(=O)O[C@H]1[C@H](O[C@@H]2[C@@H](C)[C@H](O[C@H]3C[C@@](C)(OC)[C@@H](O)[C@H](C)O3)[C@@H](C)C(=O)O[C@H](CC)[C@@](C)(O)[C@H](O)[C@@H](C)C(=O)[C@H](C)C[C@@]2(C)O)O[C@H](C)C[C@@H]1N(C)C [ERYTHROMYCIN ETHYLSUCCINATE]	IU/L	32.4
COC1=CC(=O)C[C@@H](C)[C@]12Oc1c(Cl)c(OC)cc(OC)c1C2=O	IU/L	34.4
NC(N)=Nc1nc(CSCCC(N)=NS(N)(=O)=O)cs1	IU/L	31.2

Summary for this compound, COc1ccc2[nH]c([S+]([O-])Cc3ncc(C)c(OC)c3C)nc2c1 (centres undefined) : ALT is 28.8

----------
Species: Rattus norvegicus
Assay: Open TG-GATES - Regimen: Single
Assay type: toxicity, organism-based, Sprague-Dawley
Set-up: regimen Single, gender Male, age 6 weeks
Settings: in vivo, po, 1000 mg/kg, 9 h, tissue Blood, route gavage, dose level High
parameter: Eos
Write the numeric value and append its unit.

Completed entries (count: 4):
compound	Eos
COC1=CC(=O)C[C@@H](C)[C@]12Oc1c(Cl)c(OC)cc(OC)c1C2=O	0.8%
NC(N)=Nc1nc(CSCCC(N)=NS(N)(=O)=O)cs1	0.8%
CCOC(=O)CCC(=O)O[C@H]1[C@H](O[C@@H]2[C@@H](C)[C@H](O[C@H]3C[C@@](C)(OC)[C@@H](O)[C@H](C)O3)[C@@H](C)C(=O)O[C@H](CC)[C@@](C)(O)[C@H](O)[C@@H](C)C(=O)[C@H](C)C[C@@]2(C)O)O[C@H](C)C[C@@H]1N(C)C [ERYTHROMYCIN ETHYLSUCCINATE]	1%
CC(C)OC(=O)C(C)(C)Oc1ccc(C(=O)c2ccc(Cl)cc2)cc1 [FENOFIBRATE]	0.6%

Turning now to a further record.
Summary for this compound, COc1ccc2[nH]c([S+]([O-])Cc3ncc(C)c(OC)c3C)nc2c1 (stereo not given) : Eos is 1%

----------
Species: Rattus norvegicus
Assay: Open TG-GATES - Regimen: Single
Assay type: toxicity, organism-based, Sprague-Dawley
Design: regimen Single, gender Male, age 6 weeks
Conditions: in vivo, po, 100 mg/kg, 6 h, tissue Plasma, route gavage, dose level Low
parameter: TP (g/dL)
Numbers only, in g/dL.

molecule	reported measurement
CCOC(=O)CCC(=O)O[C@H]1[C@H](O[C@@H]2[C@@H](C)[C@H](O[C@H]3C[C@@](C)(OC)[C@@H](O)[C@H](C)O3)[C@@H](C)C(=O)O[C@H](CC)[C@@](C)(O)[C@H](O)[C@@H](C)C(=O)[C@H](C)C[C@@]2(C)O)O[C@H](C)C[C@@H]1N(C)C [ERYTHROMYCIN ETHYLSUCCINATE]	5.3
COC1=CC(=O)C[C@@H](C)[C@]12Oc1c(Cl)c(OC)cc(OC)c1C2=O	5.4

Hi, could you look up TP for each item in my list?
1. NC(N)=Nc1nc(CSCCC(N)=NS(N)(=O)=O)cs1
2. COc1ccc2[nH]c([S+]([O-])Cc3ncc(C)c(OC)c3C)nc2c1 (centres undefined)

[5.4, 5.4]
